# credit: patent US12065443B2

In this section, each of the compounds is paired with its reported IC50.
- experimental_target: SIK1 (Homo sapiens)
- Construct: purchased Carna Biosciences 02-131
- Sequence (P57059 whole entry): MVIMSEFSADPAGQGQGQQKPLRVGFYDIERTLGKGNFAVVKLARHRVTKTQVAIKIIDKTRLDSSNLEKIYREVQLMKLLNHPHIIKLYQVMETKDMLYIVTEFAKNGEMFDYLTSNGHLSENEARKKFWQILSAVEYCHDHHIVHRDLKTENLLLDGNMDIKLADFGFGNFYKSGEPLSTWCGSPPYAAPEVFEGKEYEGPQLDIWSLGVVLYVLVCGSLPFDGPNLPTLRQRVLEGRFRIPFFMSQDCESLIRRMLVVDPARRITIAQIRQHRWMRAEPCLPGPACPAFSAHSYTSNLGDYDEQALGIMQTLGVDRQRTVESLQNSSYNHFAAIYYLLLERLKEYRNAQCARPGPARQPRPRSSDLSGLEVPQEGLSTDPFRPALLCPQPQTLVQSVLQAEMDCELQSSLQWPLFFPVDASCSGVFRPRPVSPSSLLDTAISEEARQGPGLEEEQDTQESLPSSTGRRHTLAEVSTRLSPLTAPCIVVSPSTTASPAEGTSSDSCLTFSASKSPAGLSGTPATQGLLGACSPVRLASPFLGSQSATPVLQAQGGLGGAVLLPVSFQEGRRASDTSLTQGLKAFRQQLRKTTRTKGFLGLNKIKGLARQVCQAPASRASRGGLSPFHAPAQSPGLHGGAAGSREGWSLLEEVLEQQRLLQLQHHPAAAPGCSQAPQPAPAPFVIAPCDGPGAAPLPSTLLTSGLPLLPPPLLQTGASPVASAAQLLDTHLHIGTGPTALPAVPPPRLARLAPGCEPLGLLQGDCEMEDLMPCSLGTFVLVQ
- assay_overview: biochemical
- cond: 33P radioactive SIK kinase assay, AMARA peptide, 10 μM ATP; read-out: SIK1 IC50

| compound | experimental_target | IC50 |
| --- | --- | --- |
| COc1cc(-c2cnc3cc(-c4cnnc(C)c4)ccn23)cc(OC)c1C(=O)NCC(F)(F)F | SIK1 (Homo sapiens) | 100 to 500 nM |
| CCNC(=O)c1c(OC)cc(-c2cnc3cc(-c4cnn(C)c4)ccn23)cc1OC(F)F | SIK1 (Homo sapiens) | 0.01 to 10 nM |
| COc1cc(-n2cnc3cc(-c4cnn(CCN5CCOCC5)c4)ccc32)cc(OC)c1C(=O)NCC(F)(F)F | SIK1 (Homo sapiens) | 10 to 100 nM |
| COc1cc(-n2cnc3cc(-c4cnn(C)c4)ccc32)cc(OC)c1C(=O)NC(C)C#N (stereo not shown) | SIK1 (Homo sapiens) | 10 to 100 nM |
| COc1cc(-c2cnc3cc(-c4cnn(C)c4)ccn23)cc(OC)c1C(=O)N1CCC(F)(F)CC1 | SIK1 (Homo sapiens) | 100 to 500 nM |
| COc1cc(-c2cnc3cc(-c4cnn(C)c4)ccn23)cc(OC)c1C(=O)N[C@@H](C)C(F)(F)F | SIK1 (Homo sapiens) | 10 to 100 nM |
| COc1cc(-n2cnc3cc(-c4cnn(C)c4)ccc32)cc(OC)c1C(=O)NCCS(C)(=O)=O | SIK1 (Homo sapiens) | 100 to 500 nM |
